Experiment: protein stability index of a GFP-peptide fusion (yeast GPS) (PSI 1-4); higher = more stable; sorted into four equal gates, so the index is relative within each strain
Conditions: san1∆
protein stability index vs 3: at or above is condition met, below is condition not met.

Determine whether this sequence has protein stability index no lower than 3: VITIKSRIRVKIEGCIS [RPB7]
condition not met

Determine whether this sequence has protein stability index no lower than 3: WYEASTWIQQFKSTMLQ [ARP7]
condition not met

Determine whether this sequence has protein stability index no lower than 3: NEESTNERLEINQEKPV [SIR4]
condition met

Determine whether this sequence has protein stability index no lower than 3: NLIIFLYKFNGWSLVGR [YML103C/NUP188]
condition not met

Determine whether this sequence has protein stability index no lower than 3: KLLKGATLYIPKALRFD [FAS2]
condition not met

Determine whether this sequence has protein stability index no lower than 3: SIPMGGQSINDSLKKLL [ARP9]
condition not met

Determine whether this sequence has protein stability index no lower than 3: DAFRVHICGICGLMTVI [RPB2]
condition not met

Determine whether this sequence has protein stability index no lower than 3: YPLPKFPTTSHESLVTT [MED8]
condition not met

Determine whether this sequence has protein stability index no lower than 3: VPQGKIVALTNAKDKER [SMC3]
condition not met

Determine whether this sequence has protein stability index no lower than 3: TNVNVKIKDVQQQIESN [SMC3]
condition met
